Just for reference, ChEMBL document CHEMBL1914336 is where these values come from.

So I've got a bunch of compounds here, and I need their Activity values.
Measured On: Cystine/glutamate transporter (Homo sapiens) (UniProt Q9UPY5)
Sequence (Q9UPY5 whole entry): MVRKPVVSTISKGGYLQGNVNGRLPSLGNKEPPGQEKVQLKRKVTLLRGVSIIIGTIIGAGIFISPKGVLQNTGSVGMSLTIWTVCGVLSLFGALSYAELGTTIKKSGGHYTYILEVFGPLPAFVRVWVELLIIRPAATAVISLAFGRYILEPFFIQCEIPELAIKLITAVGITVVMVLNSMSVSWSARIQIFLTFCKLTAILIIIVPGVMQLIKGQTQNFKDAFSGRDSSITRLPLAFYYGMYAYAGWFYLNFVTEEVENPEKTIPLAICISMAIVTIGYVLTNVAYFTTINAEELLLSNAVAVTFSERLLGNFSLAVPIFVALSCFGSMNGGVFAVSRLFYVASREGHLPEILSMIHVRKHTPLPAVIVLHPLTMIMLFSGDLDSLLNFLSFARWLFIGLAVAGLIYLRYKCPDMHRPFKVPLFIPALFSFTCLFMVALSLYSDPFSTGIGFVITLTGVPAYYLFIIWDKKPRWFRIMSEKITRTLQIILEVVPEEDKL
Assay Name: Inhibition of cystine/glutamate transporter in human SNB19 cells assessed as [3H]glutamate uptake at 500 uM
Type: cell-based
Set-up: scale not given: the % may be the effect or the level left
Condition Info: SNB-19
Reply with just the number (in %).

Query :: Consider the compound O=C1NC(=O)C(c2c3ccccc3cc3ccccc23)N1 (stereo not drawn) and give its recorded Activity.
Result :: 81

Query :: Consider the compound O=C1NC(=O)C(c2ccc(C3NC(=O)NC3=O)cc2)N1 (stereo not drawn) and give its recorded Activity.
Result :: 85

Query :: Consider the compound COC(=O)c1ccc(-c2ccc(C3NC(=O)NC3=O)cc2)cc1 (stereo not drawn) and give its recorded Activity.
Result :: 93
